For each record, write down the corresponding Selectivity D3 vs. D2L*.
study-target: human dopamine D2L receptors (long isoform) (Homo sapiens)
Construct: expressed in transfected cells
Sequence (P14416 whole entry, canonical isoform): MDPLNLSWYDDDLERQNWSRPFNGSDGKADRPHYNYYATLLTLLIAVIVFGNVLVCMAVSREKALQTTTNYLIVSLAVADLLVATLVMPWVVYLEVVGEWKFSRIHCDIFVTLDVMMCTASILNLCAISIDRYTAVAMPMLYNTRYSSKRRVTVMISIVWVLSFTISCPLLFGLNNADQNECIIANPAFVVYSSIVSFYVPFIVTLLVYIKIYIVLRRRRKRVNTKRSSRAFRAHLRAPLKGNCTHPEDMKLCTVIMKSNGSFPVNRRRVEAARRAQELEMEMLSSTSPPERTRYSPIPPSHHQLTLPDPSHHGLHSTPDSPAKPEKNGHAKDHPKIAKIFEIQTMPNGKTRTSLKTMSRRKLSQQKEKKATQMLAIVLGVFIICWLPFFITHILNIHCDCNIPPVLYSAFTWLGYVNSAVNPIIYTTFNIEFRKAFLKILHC
test-name: Dopamine D2L receptor binding, displacement of [125I]-iodospiperone
condition-details: *Ki(D2L)/Ki(D3), HEK-293 membranes, 0.01 nM [125I]-iodospiperone
Give bare numbers.

Please look at the items below and tell me Selectivity D3 vs. D2L* for each one, in order.
1. COc1cc(OC)cc(N2CCN(CCCCn3cc(C)c(=O)[nH]c3=O)CC2)c1 [Example 134]
2. Cc1cnc(=O)n(CCCCN2CCN(c3cc(C(F)(F)F)nc(C(C)(C)C)n3)CC2)c1 [Example 6]
3. CCCc1cc(N2CCN(CCCCn3ccc(-c4cccs4)nc3=O)CC2)nc(C(C)(C)C)n1 [Example 87]
4. Cc1cn(CCCCN2CCN(c3cc(C(F)(F)F)nc(C(C)(C)C)n3)CC2)c(=O)nc1NCc1ccccc1 [Example 11]
5. CCCc1cc(N2CCN(CCCCn3ccc(-c4cccc(F)c4)nc3=O)CC2)nc(C(C)(C)C)n1 [Example 72]

Response:
55
35
31
65
54

Please look at the items below and tell me Selectivity D3 vs. D2L* for each one, in order.
1. CCCc1cc(N2CCN(CCCCn3ccc(C4CCC4)nc3=O)CC2)nc(C(C)(C)C)n1 [Example 74]
2. O=c1[nH]c(=O)n(CCCCN2CCN(c3cccc(Cl)c3Cl)CC2)cc1F [Example 79]

Response:
53
30

Field Selectivity D3 vs. D2L* (human dopamine D2L receptors (long isoform) (Homo sapiens)), entry C/C(=C\CN1CCN(c2cc(C(F)(F)F)nc(C(C)(C)C)n2)CC1)Cn1ccc(=O)[nH]c1=O [Example 46] : 43

Value source: patent US8008488B2
